Biological target: human V1a receptor (Homo sapiens, UniProt P37288)
Construct: expressed in transfected cells; host or cells: HEK293 cells, transiently transfected; membranes prepared
Sequence (P37288 whole entry): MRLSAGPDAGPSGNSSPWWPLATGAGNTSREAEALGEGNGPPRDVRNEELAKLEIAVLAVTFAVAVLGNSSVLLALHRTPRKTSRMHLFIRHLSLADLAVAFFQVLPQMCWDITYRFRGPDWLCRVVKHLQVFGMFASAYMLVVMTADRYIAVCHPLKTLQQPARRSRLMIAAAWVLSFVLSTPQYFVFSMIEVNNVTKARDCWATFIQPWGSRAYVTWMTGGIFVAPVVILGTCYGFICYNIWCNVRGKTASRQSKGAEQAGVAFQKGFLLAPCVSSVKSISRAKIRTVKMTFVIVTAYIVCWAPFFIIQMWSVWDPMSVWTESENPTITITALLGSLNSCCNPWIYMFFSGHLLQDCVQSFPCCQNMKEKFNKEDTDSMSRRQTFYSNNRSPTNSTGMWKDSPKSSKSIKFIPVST
Test: human V1a receptor binding (3H-Vasopressin SPA, HEK293 membranes)
Settings: 3H-Vasopressin displacement, membranes of HEK293 cells transiently transfected with human V1a; Ki by Cheng-Prussoff
result_type: Ki (nM)

Here is how some molecules turned out for Ki.
- molecule: "CNC(=O)Cn1cc(C(=O)N2CCC3(CC2)CNC(=O)c2ccccc23)c2ccc(Cl)cc21 [Example 28]"
  subject_of_test: "human V1a receptor (Homo sapiens, UniProt P37288)"
  result_type: "Ki"
  endpoint_result: 166
- molecule: "CN(C)C(=O)Cn1cc(C(=O)N2CCC3(CC2)OC(=O)Nc2ccccc23)c2ccc(Cl)cc21 [Example 17]"
  subject_of_test: "human V1a receptor (Homo sapiens, UniProt P37288)"
  result_type: "Ki"
  endpoint_result: 5.7
- molecule: "O=C1Nc2ccccc2C2(CCN(C(=O)c3cn(C(=O)c4cc(F)cc(F)c4)c4cc(Cl)ccc34)CC2)O1 [Example 21]"
  subject_of_test: "human V1a receptor (Homo sapiens, UniProt P37288)"
  result_type: "Ki"
  endpoint_result: 88
- molecule: "O=C1Nc2ccccc2C2(CCN(C(=O)c3cn(-c4cc(F)cc(F)c4)c4cc(Cl)ccc34)CC2)O1 [Example 5]"
  subject_of_test: "human V1a receptor (Homo sapiens, UniProt P37288)"
  result_type: "Ki"
  endpoint_result: 130

(P) O=C1Nc2ccccc2C2(CCN(C(=O)c3cn(C(=O)c4cccc(F)c4)c4cc(Cl)ccc34)CC2)O1 [Example 6]
(Q) O=C1Nc2ccccc2C2(CCN(C(=O)c3cn(CC(=O)c4ccccn4)c4cc(Cl)ccc34)CC2)O1 [Example 26]
(R) O=C1Nc2ccccc2C2(CCN(C(=O)c3cn(C(=O)N4CCCCC4)c4cc(Cl)ccc34)CC2)O1 [Example 19]
Order the records so the highest Ki appears first and the lowest last. Answer by naming the labels in the order asked. P, R, Q

---

Molecular target: human V1a receptor (Homo sapiens, UniProt P37288)
Construct: expressed in transfected cells; host or cells: HEK293 cells, transiently transfected; membranes prepared
Assay: human V1a receptor binding (3H-Vasopressin SPA, HEK293 membranes)
Conditions: 3H-Vasopressin displacement, membranes of HEK293 cells transiently transfected with human V1a; Ki by Cheng-Prussoff
result_type: Ki (nM)

- compound: "N#CCCn1cc(C(=O)N2CCC3(CC2)OC(=O)Nc2ccccc23)c2ccc(Cl)cc21 [Example 24]"
  display_unit: "nM"
  Ki: 10
- compound: "O=C1Nc2ccccc2C2(CCN(C(=O)c3cn(CC(=O)c4cc(F)cc(F)c4)c4cc(Cl)ccc34)CC2)O1 [Example 22]"
  display_unit: "nM"
  Ki: 200
- compound: "O=C1Nc2ccccc2C2(CCN(C(=O)c3cn(CC(=O)N4CCOCC4)c4cc(Cl)ccc34)CC2)O1 [Example 16]"
  display_unit: "nM"
  Ki: 20

(A) O=C1Nc2ccccc2C2(CCN(C(=O)c3c[nH]c4cc(Cl)ccc34)CC2)O1 [Example 1]
(B) O=C1Nc2ccccc2C2(CCN(C(=O)c3cn(CC(=O)N4CCCCC4)c4cc(Cl)ccc34)CC2)O1 [Example 15]
Which record shows the lower Ki: the first, A , or the second, B ? Your choice should be expressed through its label. B

(I) O=C1CC2(CCN(C(=O)c3c[nH]c4ccccc34)CC2)c2cc(Br)ccc2N1 [Example 2]
(II) CCN(CC)C(=O)Cn1cc(C(=O)N2CCC3(CC2)OC(=O)Nc2ccccc23)c2ccc(Cl)cc21 [Example 18]
I need your help: which of the pair I , II has higher Ki? Which one? Tell me its label. I
(I: 2050 nM, II: 6 nM)

---

Molecular target: human V1a receptor (Homo sapiens)
Construct: expressed in transfected cells; host or cells: HEK293 cells, transiently transfected; membranes prepared
Assay: human V1a receptor binding (3H-Vasopressin SPA, HEK293 membranes)
Details: 3H-Vasopressin displacement, membranes of HEK293 cells transiently transfected with human V1a; Ki by Cheng-Prussoff
result_type: Ki (nM)

- smiles_str: "O=C1Nc2ccccc2C2(CCN(C(=O)c3cn(CC(=O)c4ccc(F)c(F)c4)c4cc(Cl)ccc34)CC2)O1"
  endpoint_result: 8

(I) CC(C)(C)OC(=O)Cn1cc(C(=O)N2CCC3(CC2)OC(=O)Nc2ccccc23)c2ccc(Cl)cc21
(II) O=C1Nc2ccccc2C2(CCN(C(=O)c3cn(C(=O)c4ccccc4F)c4cc(Cl)ccc34)CC2)O1
(III) O=C1Nc2ccccc2C2(CCN(C(=O)c3cn(CC(=O)c4cccc(F)c4)c4cc(Cl)ccc34)CC2)O1
Order the items by recorded Ki; the first position goes to the largest value. Your reply should list the labels following the order given in the request. II, I, III
(II: 117 nM, I: 10 nM, III: 7 nM)

---

Biological target: human V1a receptor (Homo sapiens, UniProt P37288)
Construct: expressed in transfected cells; host or cells: HEK293 cells, transiently transfected; membranes prepared
Experiment: human V1a receptor binding (3H-Vasopressin SPA, HEK293 membranes)
Conditions: 3H-Vasopressin displacement, membranes of HEK293 cells transiently transfected with human V1a; Ki by Cheng-Prussoff
result_type: Ki (nM)

- compound: "CC(C#N)n1cc(C(=O)N2CCC3(CC2)OC(=O)Nc2ccccc23)c2ccc(Cl)cc21 (stereo not shown)"
  subject_of_test: "human V1a receptor (Homo sapiens, UniProt P37288)"
  display_unit: "nM"
  Ki: 28

(1) O=C1Nc2ccccc2C2(CCN(C(=O)c3cn(CC(=O)c4ccccc4F)c4cc(Cl)ccc34)CC2)O1
(2) CN(C)CCN1C(=O)OC2(CCN(C(=O)c3c[nH]c4cc(Cl)ccc34)CC2)c2cc(Cl)ccc21
(3) O=C1Nc2ccccc2C2(CCN(C(=O)c3cn(Cc4cccc(F)c4)c4cc(Cl)ccc34)CC2)O1
Order the records so the highest Ki appears first and the lowest last. Respond with the label ranking, as requested. 2, 3, 1

---

Target: human V1a receptor (Homo sapiens, UniProt P37288)
Construct: expressed in transfected cells; host or cells: HEK293 cells, transiently transfected; membranes prepared
Test: human V1a receptor binding (3H-Vasopressin SPA, HEK293 membranes)
Conditions: 3H-Vasopressin displacement, membranes of HEK293 cells transiently transfected with human V1a; Ki by Cheng-Prussoff
Description: The human V1a receptor was cloned by RT-PCR from total human liver RNA. The coding sequence was subcloned in an expression vector after sequencing to confirm the identity of the amplified sequence. […] Cell membranes were prepared from HEK293 cells transiently transfected with the expression vector and grown in 20 liter fermenters with the following protocol. […]
result_type: Ki (nM)

(A) O=C1Nc2ccccc2C2(CCN(C(=O)c3cn(C(=O)c4cccc(F)c4F)c4cc(Cl)ccc34)CC2)O1 [Example 8]
(B) Cc1oc(-c2ccccc2)nc1C(=O)Cn1cc(C(=O)N2CCC3(CC2)OC(=O)Nc2ccccc23)c2ccc(Cl)cc21 [Example 27]
Compare Ki: is it lower for A or for B ? Answer with the label corresponding to your selection. B
